- Tested on: CD2F1 mice, L1210 leukemia ip, survival T/C
- test.details: NCI In Vivo Anticancer Drug Screen. Data for tumor model L1210 Leukemia (intraperitoneal) in CD2F1 (CDF1) mice
- setup.conditions: endpoint: mean survival time; dose: 150.0 mg/kg/injection; schedule: Q01DX001 (ip); vehicle: saline; higher = longer survival
Toxic doses and inconclusive results are not listed.

structure.string	T/C
O=C(Oc1ccc(OC(=O)c2ccccc2)c([N+](=O)[O-])c1)c1ccccc1	98 % of control
CCn1c(C)[n+](CC)c2ccc(C(F)(F)F)cc21	100 % of control
O=S(=O)(O)O.[Zr]	91 % of control
